Target or system UniProt:Q06187; recorded quantity IC50.

The cases that follow already have their IC50 on record.
[
  {
    "COMPOUND": "CN(C(=O)n1cncn1)[C@@H]1CCC[C@@H](n2nc(-c3ccc(Oc4ccccc4)cc3)c(C(N)=O)c2N)C1",
    "IC50": "≤ 1 µM"
  },
  {
    "COMPOUND": "COc1ccc(F)cc1C(=O)NCc1ccc(-c2nn(C(C)C(C)N(C)C(=O)n3cnnc3)c(N)c2C(N)=O)cc1 (stereo not shown)",
    "IC50": "> 1 µM"
  }
]

Recorded IC50 (compound CN(CCC1CCNc2c(C(N)=O)c(-c3ccc(Oc4ccccc4)cc3)nn21)C(=O)n1cncn1 (stereo not shown) ): ≤ 1 µM

Recorded IC50 (compound CN(C(=O)n1cnc(Cl)n1)C1CCC(n2nc(-c3ccc(Oc4ccccc4)cc3)c3c(N)ncnc32)CC1 (stereo not shown) ): ≤ 1 µM

---

The compounds listed here are annotated with their IC50.
# TESTED_ON: BTK C481S protein (Homo sapiens (Human), UniProt Q06187, C481S)
# Sequence (Q06187 2-659 C481S): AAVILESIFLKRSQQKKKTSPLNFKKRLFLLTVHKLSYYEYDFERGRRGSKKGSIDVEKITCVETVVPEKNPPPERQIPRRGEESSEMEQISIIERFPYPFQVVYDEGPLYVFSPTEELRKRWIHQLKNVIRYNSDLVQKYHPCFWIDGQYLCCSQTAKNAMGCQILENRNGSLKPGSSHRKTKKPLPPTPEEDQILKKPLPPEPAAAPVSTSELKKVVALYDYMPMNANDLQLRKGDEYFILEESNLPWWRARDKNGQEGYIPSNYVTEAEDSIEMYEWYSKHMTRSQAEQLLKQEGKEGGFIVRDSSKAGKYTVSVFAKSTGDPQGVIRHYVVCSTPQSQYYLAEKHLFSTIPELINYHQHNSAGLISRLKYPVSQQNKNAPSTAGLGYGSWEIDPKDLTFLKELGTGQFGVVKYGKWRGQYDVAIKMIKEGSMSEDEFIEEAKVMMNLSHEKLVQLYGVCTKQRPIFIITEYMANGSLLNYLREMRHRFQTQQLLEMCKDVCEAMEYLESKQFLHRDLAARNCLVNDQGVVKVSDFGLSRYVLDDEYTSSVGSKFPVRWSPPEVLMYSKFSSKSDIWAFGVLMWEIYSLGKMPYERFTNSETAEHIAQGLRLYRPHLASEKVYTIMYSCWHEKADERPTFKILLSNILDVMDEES
# TEST_DETAILS: BTK C481S HTRF displacement assay
# ASSAY_SETUP: 1-hour incubation

The cases that follow already have their IC50 on record.
[
  {
    "COMPOUND": "COc1ccc(F)cc1C(=O)NCc1ccc(-c2nn([C@H]3CCCC[C@H](N(C)C(=O)n4cncn4)C3)c(N)c2C(N)=O)cc1",
    "RESULT": "≤ 1000 nM"
  },
  {
    "COMPOUND": "Nc1ncnc2c1c(-c1ccc(Oc3ccccc3)cc1)nn2CC1CCCCN1C(=O)n1cncn1 (centres unmarked)",
    "RESULT": "≤ 1000 nM"
  },
  {
    "COMPOUND": "CCC(CN(C)C(=O)n1cncn1)n1nc(-c2ccc(CNC(=O)c3cc(F)ccc3OC)cc2)c2c(N)ncnc21 (centres unmarked)",
    "RESULT": "> 1000 nM"
  },
  {
    "COMPOUND": "CN(C(=O)n1cncn1)C1CCC2CNc3c(C(N)=O)c(-c4ccc(Oc5ccccc5)cc4)nn3C2C1 (centres unmarked)",
    "RESULT": "> 1000 nM"
  }
]

Recorded IC50 (compound COc1nn(C)cc1Nc1nc(N2CCC3(CCN3C(=O)n3cncn3)C2)nc2c1ncn2C (centres unmarked) ): > 1000 nM

Recorded IC50 (compound COc1ccc(F)cc1C(=O)NCc1ccc(-c2nn(C3CCCC(CN(C)C(=O)n4cncn4)C3)c3ncnc(N)c23)cc1 (centres unmarked) ): ≤ 1000 nM

---

The compounds listed here are annotated with their IC50.
# TESTED_ON: BTK C481S protein (Homo sapiens (Human), UniProt Q06187, C481S)
# TEST_DETAILS: BTK C481S HTRF displacement assay
# ASSAY_SETUP: 1-hour incubation
# Procedure: The ability of a compound to bind BTK wildtype or BTK C481S proteins was measured using an HTRF displacement assay. […] Test compounds were prepared as 10 mM stock solutions in DMSO (Fisher cat #BP231-100). […] After a 1-hour incubation at room temperature, the HTRF signal was measured using SPARK plate reader (Tecan) using the TR fluorescence mode. The HTRF ratio is calculated for DMSO, no protein control and compound samples using the following equation: HTRF ratio=Emmision665/Emmision620×10^4. […]

The cases that follow already have their IC50 on record.
[
  {
    "COMPOUND": "COc1ccc(F)cc1C(=O)NCc1ccc(-c2nn(C3(CCN(C)C(=O)n4cncn4)CCC3)c3ncnc(N)c23)cc1",
    "TESTED_ON": "BTK C481S protein (Homo sapiens (Human), UniProt Q06187, C481S)",
    "RESULT": "≤ 1000 nM"
  },
  {
    "COMPOUND": "COc1ccc(F)cc1C(=O)NCc1ccc(-c2nn(CC3CCCN3C(=O)n3cncn3)c(N)c2C(N)=O)cc1 (centres unmarked)",
    "TESTED_ON": "BTK C481S protein (Homo sapiens (Human), UniProt Q06187, C481S)",
    "RESULT": "≤ 1000 nM"
  },
  {
    "COMPOUND": "COc1ccc(F)cc1C(=O)NCc1ccc(-c2nn(C[C@H](C3CC3)N(C)C(=O)n3cncn3)c3ncnc(N)c23)cc1",
    "TESTED_ON": "BTK C481S protein (Homo sapiens (Human), UniProt Q06187, C481S)",
    "RESULT": "> 1000 nM"
  },
  {
    "COMPOUND": "COc1ccc(F)cc1C(=O)NCc1ccc(-c2nn(CC3CCC(N(C)C(=O)n4cncn4)C3)c3ncnc(N)c23)cc1 (centres unmarked)",
    "TESTED_ON": "BTK C481S protein (Homo sapiens (Human), UniProt Q06187, C481S)",
    "RESULT": "≤ 1000 nM"
  },
  {
    "COMPOUND": "COc1ccc(C)cc1C(=O)NCc1ccc(-c2nn(C3CCC(N(C)C(=O)n4cnnn4)C3)c3ncnc(N)c23)cc1 (centres unmarked)",
    "TESTED_ON": "BTK C481S protein (Homo sapiens (Human), UniProt Q06187, C481S)",
    "RESULT": "≤ 1000 nM"
  }
]

Recorded IC50 (compound COc1ccc(F)cc1C(=O)NCc1ccc(-c2nn(C(C)C3CCCCN3C(=O)n3cncn3)c3ncnc(N)c23)cc1 (centres unmarked) ): ≤ 1000 nM

Data provenance is patent US20240294531A1.
